molecular target: SARS-CoV (2003) spike protein borne on lentiviral pseudovirus (SARS-CoV (2003), UniProt P59594 14-1255); assay: cell-based or functional assay
Listed below: Pseudo Neut, SARS-CoV 2003 IC50 values for each entry.
Write the value in nM as a bare number.

antibody 1814 (antibody, V domains shown) VH: QVQLQESGPGLVKPSETLSLTCSVSGGSINYYYWSWIRQTPGQGLEWIGFIYSSGTTNYNPSLKSRVTMSKDTAKKQFSLKLTSVTAADSAVYYCARHSRSCTNGVCQTYYYYALDVWGHGTTVTVSS VL: QSVLTQPPSVSGAPGQRVTISCTGSGSNIGSGYDVHWYQQLPGRAPKLLIYRNRNRPSGVPDRFSGSKSGTSASLAIAGLQSEDEGDYFCQSYDGRLGESAVFGGGTRLTVL : 6.5

Turning to the following binder.
Query: Give recorded Pseudo Neut, SARS-CoV 2003 IC50. antibody 1872 (antibody, V domains shown) VH: EVQLVESGGGLVKPGGSLRLSCAASGFSFSLYTMNWVRQAPGKGLEWVSYISSSSSYRYYADSVKGRFSVSRDNAKNALYLQMNGLRAEDTAVYYCARDGYCPRGVCTYYGMDVWGQGTTVTVSA VL: EIVMTQSPATLSVSPGERATLSCRASQSVGSRLAWYQQKPGQAPRLLIYDATIRATGIPARFSGSGSGTDFTLTISGLQSEDFAVYYCQRYNNWPPAYTFGQGTKLEIK
Result: 27

The origin of these recorded values is patent US20230382979A1.
